Assay: Hydrophobicity index
Type: ADME
Value Type: k'
// print number alone

Here's what some known entries look like.
| Compound | k' |
| --- | --- |
| Cn1cnc2c(N)ncnc21 | 0.11 |
| CCn1cnc2c(N)ncnc21 | 0.39 |
| OCCn1cnc2c(NC3CCCC3)ncnc21 | 0.68 |
| c1nc(NC2CCCC2)c2ncn(C3CCCC3)c2n1 | 4.99 |
| Nc1ncnc2c1ncn2C1CCCO1 (stereo not drawn) | 0.21 |
| c1ccc(-n2cnc3c(NC4CCCC4)ncnc32)cc1 | 3.91 |

[Q] Could you tell me which k' is on file for `Cn1cnc2c(N)nc(Cl)nc21` ?
[A] 0.22

[Q] Item: `Cn1cnc2c(NC3CCCC3)nc(Cl)nc21`
[A] 3.37
